# Subject of test: human adrenergic-α2A receptor (Homo sapiens)
# Construct: expressed in transfected cells; membrane preparation
# Sequence (P08913 whole entry): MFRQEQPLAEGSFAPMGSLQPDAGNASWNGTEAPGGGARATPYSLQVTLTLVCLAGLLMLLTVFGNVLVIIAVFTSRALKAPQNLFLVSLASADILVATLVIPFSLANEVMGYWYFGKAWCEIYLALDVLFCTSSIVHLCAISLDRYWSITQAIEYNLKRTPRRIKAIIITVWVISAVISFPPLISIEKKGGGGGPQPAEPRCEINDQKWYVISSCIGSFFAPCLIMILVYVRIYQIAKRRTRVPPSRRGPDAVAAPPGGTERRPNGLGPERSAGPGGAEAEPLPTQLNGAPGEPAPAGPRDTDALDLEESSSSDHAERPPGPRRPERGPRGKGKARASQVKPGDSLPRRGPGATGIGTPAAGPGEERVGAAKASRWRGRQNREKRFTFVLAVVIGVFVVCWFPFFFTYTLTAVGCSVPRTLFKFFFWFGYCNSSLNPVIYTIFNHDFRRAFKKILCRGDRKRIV
# Assay notes: Radioligand binding experiment for α2A-adrenoceptor ([3H]-raulwolscine competition, CHO cell membranes)
# Condition details: [3H]raulwolscine 1 nM, membranes of CHO cells transfected with human α2A receptor; read-out: pIC50 α2A (converted)
Readout: IC50 (nM)

Field: example entries. Status: answers known.
Compound	IC50 (nM)
C/C(=C\c1ccccc1)CN1CCC(n2cnn(-c3ccc(CN)cc3)c2=O)CC1	15.8
CN(C)CCNc1ccc(-n2cnn(CCC3CCN(CCOc4ccccc4)CC3)c2=O)cc1	3.98
O=c1n(-c2ccc(CN3CCC(N4CCCC4)CC3)cc2)cnn1CC1CCN(CCOc2ccccc2)CC1	39.8

1. O=c1n(CC2CCN(CCOc3ccccc3)CC2)cnn1CCN1CCN(Cc2c[nH]c3ccc(F)cc23)CC1
2. CC(C)N1CCN(c2ccc(-n3cnn(CC4CCN(CCOc5ccccc5)CC4)c3=O)cc2)CC1
Query string: Hey, between 1 and 2 which has a smaller measured IC50? Please reply using the label of the selected record.
Result string: 1

a. NCc1ccc(-n2cnn(C3CCN(CCOc4ccccc4)CC3)c2=O)cc1
b. C/C(=C\c1ccccc1)CN1CCC(n2cnn(CCN3CCCCC3)c2=O)CC1
c. C/C(=C\c1ccc(F)cc1)CN1CCN(CCn2ncn(Cc3ccc(CN)cc3)c2=O)CC1
d. CC(C)(C)C(=O)Cn1cnn(CC2CCN(CCOc3ccccc3)CC2)c1=O
e. COc1ccc(N2CCN(c3ccc(-n4cnn(C(C)C(C)NCCOc5ccccc5)c4=O)cc3)CC2)cc1 (centres unmarked)
Query string: Reorder the items by IC50, least to greatest. # output: labels, in the requested order
Result string: a, d, c, b, e

A. C/C(=C\c1ccccc1)CN1CCC(n2ncn(-c3ccc(CN)cc3)c2=O)CC1
B. CN1CCN(CCCNc2ccc(-n3cnn(CC4CCN(CCOc5ccccc5)CC4)c3=O)cc2)CC1
Query string: Which value of IC50 is greater, the one for A or the one for B ? Please reply using the label of the selected record.
Result string: B
(B: 63.1 nM, A: 39.8 nM)

1. O=c1n(-c2ccc(CN3CCC(N4CCCC4)CC3)cc2)cnn1CCNCCOc1ccccc1
2. O=c1n(CC2CCN(CCOc3ccccc3)CC2)cnn1CCN1CCN(c2cccc3c2OCCO3)CC1
Query string: Which value of IC50 is greater, the one for 1 or the one for 2 ? Please reply using the label of the selected record.
Result string: 2

###

# Subject of test: human adrenergic-α2C receptor (Homo sapiens, UniProt P18825)
# Construct: expressed in transfected cells; membrane preparation
# Sequence (P18825 1-462): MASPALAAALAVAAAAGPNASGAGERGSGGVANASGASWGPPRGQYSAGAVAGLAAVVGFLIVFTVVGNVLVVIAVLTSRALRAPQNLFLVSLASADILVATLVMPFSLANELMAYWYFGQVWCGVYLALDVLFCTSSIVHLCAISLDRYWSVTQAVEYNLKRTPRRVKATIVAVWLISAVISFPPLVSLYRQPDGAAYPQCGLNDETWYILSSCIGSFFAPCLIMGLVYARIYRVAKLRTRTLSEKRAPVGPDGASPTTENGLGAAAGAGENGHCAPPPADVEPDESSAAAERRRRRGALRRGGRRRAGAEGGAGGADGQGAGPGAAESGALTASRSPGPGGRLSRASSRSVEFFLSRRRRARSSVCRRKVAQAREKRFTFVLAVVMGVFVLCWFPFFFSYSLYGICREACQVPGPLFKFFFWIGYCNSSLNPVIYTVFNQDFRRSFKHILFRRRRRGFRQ
# Assay notes: Radioligand binding experiment for α2C-adrenoceptor ([3H]-raulwolscine competition, CHO cell membranes)
# Condition details: [3H]raulwolscine 1 nM, membranes of CHO cells transfected with human α2C receptor; read-out: pIC50 α2C (converted)
Readout: IC50 (nM)

Field: example entries. Status: answers known.
Compound	Unit tag	IC50
O=c1n(-c2ccc(CN3CCC(N4CCCC4)CC3)cc2)cnn1CC1CCN(CCOc2ccccc2)CC1	nM	2.51
C/C(=C\c1ccccc1)CN1CCC(n2cnn(CCCN3C(=O)c4ccccc4C3=O)c2=O)CC1	nM	5.01
CN1CCCN(Cc2ccc(-n3cnn(CCNCCOc4ccccc4)c3=O)cc2)CC1	nM	1
CN(CCNc1ccc(-n2cnn(CC3CCN(CCOc4ccccc4)CC3)c2=O)cc1)Cc1ccccc1	nM	1.58
O=c1n(-c2ccc(N3CCC(N4CCCC4)CC3)cc2)cnn1CCNCCOc1ccccc1	nM	3.98
CC(NCCOc1ccccc1)C(C)n1ncn(-c2ccc(N3CCN(c4ccc(O)cc4)CC3)cc2)c1=O (single isomer, unassigned) [compound 7]	nM	7.94

P. C/C(=C\c1ccc(F)cc1)CN1CCN(CCn2ncn(Cc3ccc(CN)cc3)c2=O)CC1
Q. O=c1n(-c2ccc(CN3CCc4ccccc4C3)cc2)cnn1CCNCCOc1ccccc1
R. O=c1n(CCN2CCCCC2)cnn1CCNCCOc1ccccc1
S. O=c1n(-c2ccc(CN3CCOCC3)cc2)cnn1CCNCCOc1ccccc1 [compound 24]
T. O=c1n(CCNCCOc2ccccc2)nnn1-c1ccc(CN2CCC(O)CC2)cc1
Query string: Reorder the items by IC50, least to greatest. # output: labels, in the requested order
Result string: Q, S, R, T, P

I. CC(C)N1CCN(c2ccc(-n3cnn(CC4CCN(CCOc5ccccc5)CC4)c3=O)cc2)CC1
II. COc1ccc(N2CCN(c3ccc(-n4cnn(C(C)C(C)NCCOc5ccccc5)c4=O)cc3)CC2)cc1 (stereo not shown)
III. COc1ccc(N2CCN(c3ccc(-n4cnn(C5CCN(Cc6ccc7c(c6)OCCO7)CC5)c4=O)cc3)CC2)cc1
Query string: Order these by IC50, descending, and give the full ranking. # output: labels, in the requested order
Result string: III, II, I
